target.or.system: human S1P receptor EDG-3 (S1P3) (Homo sapiens)
Sequence (Q99500 whole entry): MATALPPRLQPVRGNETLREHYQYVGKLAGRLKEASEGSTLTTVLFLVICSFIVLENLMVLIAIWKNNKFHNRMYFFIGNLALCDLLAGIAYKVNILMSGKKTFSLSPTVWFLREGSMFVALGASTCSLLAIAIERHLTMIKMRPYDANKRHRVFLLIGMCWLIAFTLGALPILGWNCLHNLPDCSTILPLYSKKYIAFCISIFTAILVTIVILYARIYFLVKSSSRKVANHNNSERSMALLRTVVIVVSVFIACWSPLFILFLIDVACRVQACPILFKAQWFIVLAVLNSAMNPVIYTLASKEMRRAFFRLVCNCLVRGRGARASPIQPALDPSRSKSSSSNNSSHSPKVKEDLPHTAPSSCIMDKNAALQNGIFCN
test.summary: S1P receptor profiling, GTP[γ-35S] binding SPA, S1P3
test.settings: membranes of transfected CHO or RH7777 cells
A collection of compounds and their measured EC50

1. COc1cc(CC[C@@](C)(N)COP(=O)(O)O)cc(Cl)c1OCCCC(F)(F)C(F)(F)F > 10 µM

QUERY: For the compound CCCCCOc1c(Cl)cc(CC[C@@](C)(N)COP(=O)(O)O)cc1Cl , give its reported EC50.
RESULT: > 10 µM

QUERY: Quick one: give measured EC50 for CCOc1ccc(CCOc2c(Cl)cc(CC[C@@](C)(N)COP(=O)(O)O)cc2OC)cc1
RESULT: 0.111 µM

Every entry's value here was drawn from patent US7696184B2.
